Tested on: Hs578T
RUN_DESCRIPTION: normalised response (% of control), CellTiter-Glo; higher = more viable cells (100 = DMSO, 0 = benzethonium chloride kill control)
CONDITION_PARAMETERS: incubation time: 72 h
REPORTED_ENDPOINT: normalised response (%)

| COMPOUND | STUDY_SYSTEM | VALUE_UNIT | NUMBER |
| --- | --- | --- | --- |
| O=[N+]([O-])c1ccc2c(c1)S(=O)(=O)C=C2 [Stattic] (50000 nM) | Hs578T | % | 0.3 |
| CCn1c(C(=O)N(C2CC2)C2CC2)cc2c3c(ncn3C)c(Nc3cc(C)n(C)n3)nc21 (10000 nM) | Hs578T | % | 96 |
| O=C(O)CNC(=O)c1c(O)c2ccccc2n(Cc2ccccc2)c1=O [IOX-2] (50000 nM) | Hs578T | % | 103 |
| O=C(CCCCCCC(=O)Nc1ccccc1)NO [Vorinostat] (10000 nM) | Hs578T | % | 34 |
